pIC50: −log10 of the molar value.
// each record: one item and its pIC50 for flt-3 (Homo sapiens, UniProt P36888)

The examples below pair each entry with its known result.
                                chem_smiles  readout  experimental_value
0     Oc1ccc(/C=C/c2cc(-c3cccnc3)n[nH]2)cc1    pIC50        6.30 to 7.30
1  COc1cc(/C=C/c2cc(/C=C/c3ccc(F)cc3F)n[nH]2)ccc1O    pIC50              > 7.30

Lab entry: flt-3 (Homo sapiens, UniProt P36888) assay, compound "CN1CCN(c2ccc3[nH]c(-c4cc(-c5ccc(NC(=O)Nc6cc(C(F)(F)F)cc(C(F)(F)F)c6)cc5)[nH]n4)nc3c2)CC1" , pIC50 = > 7.30

Lab entry: flt-3 (Homo sapiens, UniProt P36888) assay, compound "CN1CCN(c2ccc3[nH]c(-c4cc(-c5ccc(NC(=O)Nc6ccccc6F)cc5)[nH]n4)nc3c2)CC1" , pIC50 = > 7.30

Lab entry: flt-3 (Homo sapiens, UniProt P36888) assay, compound "CN1CCN(c2ccc3nc(-c4cc(/C=C/c5ccc(O)cc5)[nH]n4)[nH]c3c2)CC1" , pIC50 = > 7.30

Lab entry: flt-3 (Homo sapiens, UniProt P36888) assay, compound "COc1ccccc1-c1cc(/C=C/c2ccc(O)cc2)n[nH]1" , pIC50 = 5.30 to 6.30

Lab entry: flt-3 (Homo sapiens, UniProt P36888) assay, compound "CN1CCN(c2ccc(-c3cc(-c4ccc(NC(=O)Nc5ccc6c(c5)OCCO6)cc4)n[nH]3)cc2)CC1" , pIC50 = > 7.30

Lab entry: flt-3 (Homo sapiens, UniProt P36888) assay, compound "COc1cc(/C=C/c2cc(/C=C/c3ccc(Cl)cc3)n[nH]2)ccc1O" , pIC50 = > 7.30

Lab entry: flt-3 (Homo sapiens, UniProt P36888) assay, compound "CC(=O)c1cccc(NC(=O)Nc2ccc(-c3cc(-c4nc5cc(N6CCN(C)CC6)ccc5[nH]4)n[nH]3)cc2)c1" , pIC50 = > 7.30

Lab entry: flt-3 (Homo sapiens, UniProt P36888) assay, compound "Oc1ccc(/C=C/c2cc(-c3ccccn3)[nH]n2)cc1" , pIC50 = 6.30 to 7.30

* * *

target: c-Kit (Homo sapiens, UniProt P10721); assay: c-Kit biochemical assay (AlphaScreen)
Sequence (P10721 26-976): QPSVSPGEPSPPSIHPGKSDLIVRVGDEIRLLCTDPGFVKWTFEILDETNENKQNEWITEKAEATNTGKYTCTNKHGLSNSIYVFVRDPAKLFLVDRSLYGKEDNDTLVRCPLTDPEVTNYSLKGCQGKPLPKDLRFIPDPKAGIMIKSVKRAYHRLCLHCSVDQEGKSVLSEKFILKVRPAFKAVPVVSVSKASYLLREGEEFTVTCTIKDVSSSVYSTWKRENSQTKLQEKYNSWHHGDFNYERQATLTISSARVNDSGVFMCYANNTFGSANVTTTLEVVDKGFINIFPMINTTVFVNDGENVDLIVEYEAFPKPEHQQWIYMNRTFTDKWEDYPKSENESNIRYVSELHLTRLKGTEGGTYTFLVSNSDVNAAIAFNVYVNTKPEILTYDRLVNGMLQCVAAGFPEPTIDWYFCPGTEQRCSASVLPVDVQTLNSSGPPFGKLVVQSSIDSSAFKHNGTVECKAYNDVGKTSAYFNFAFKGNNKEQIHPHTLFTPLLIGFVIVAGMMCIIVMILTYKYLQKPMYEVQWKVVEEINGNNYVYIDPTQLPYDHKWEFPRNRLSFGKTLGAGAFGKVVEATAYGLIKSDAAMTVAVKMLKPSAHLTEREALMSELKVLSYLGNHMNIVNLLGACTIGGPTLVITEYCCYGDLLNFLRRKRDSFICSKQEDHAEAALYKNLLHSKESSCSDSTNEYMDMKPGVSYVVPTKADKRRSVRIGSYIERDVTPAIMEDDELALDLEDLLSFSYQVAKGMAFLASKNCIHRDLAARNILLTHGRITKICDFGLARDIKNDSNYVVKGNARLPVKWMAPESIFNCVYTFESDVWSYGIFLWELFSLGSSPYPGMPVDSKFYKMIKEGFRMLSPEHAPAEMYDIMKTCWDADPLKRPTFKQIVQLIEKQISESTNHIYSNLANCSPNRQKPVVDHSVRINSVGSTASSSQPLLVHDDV
pIC50: −log10 of the molar value.
Here the recorded pIC50 is given for each entry.

The examples below pair each entry with its known result.
In [3]: df
Out[3]:
                                chem_smiles  experimental_value
0  CN1CCN(c2ccc3nc(-c4cc(-c5ccc(NC(=O)Nc6cccc(C#N)c6)cc5)[nH]n4)[nH]c3c2)CC1              > 7.30
1  COc1ccc(Cl)cc1NC(=O)Nc1ccc(-c2cc(-c3ccc(N4CCN(C)CC4)cc3)[nH]n2)cc1              > 7.30
2  Cc1ccc(F)cc1NC(=O)Nc1ccc(-c2cc(-c3ccc(N4CCN(C)CC4)cc3)[nH]n2)cc1        6.30 to 7.30
3  CN1CCN(c2ccc(-c3cc(-c4ccc(NC(=O)Nc5ccc6c(c5)OCCO6)cc4)n[nH]3)cc2)CC1        6.30 to 7.30
4  CC(=O)c1cccc(NC(=O)Nc2ccc(-c3cc(-c4nc5cc(N6CCN(C)CC6)ccc5[nH]4)n[nH]3)cc2)c1              > 7.30
5  Oc1ccc(/C=C/c2cc(-c3cc4ccccc4o3)n[nH]2)cc1        6.30 to 7.30

Lab entry: c-Kit (Homo sapiens, UniProt P10721) assay, compound "Oc1ccc(/C=C/c2cc(-c3ccc(F)cc3)[nH]n2)cc1" , pIC50 = 6.30 to 7.30
